# GI50 per entry
# System: BT-549
# assay notes: NCI tumour cell line growth inhibition, 48 h
Active and inactive are the calls of the source. Cut-off read from the data, not from the text of the source: active = GI50 up to about 1.1 µM and inactive = higher.

Sample records with GI50:
{"columns": ["molecule", "GI50"],
 "data": [
  ["N#Cc1[nH]c(=S)[nH]c1N", "> 100 µM (inactive)"],
  ["Cc1cccc(Nc2nn3c(=O)c4c5c(sc4nc3s2)CCCC5)c1", "25.8 µM (inactive)"],
  ["CC(N)C(C)Cc1ccccc1 (stereo not given)", "> 100 µM (inactive)"],
  ["CCCCCC(C)(C)CCC(=O)OC1OC(COC2OC(COC3OC(CO)C(O)C(O)C3O)C(O)C(O)C2O)C(O)C(O)C1O (stereo not given)", "> 100 µM (inactive)"],
  ["Cc1ccccc1NC(=O)C(=O)CC(=O)c1sc(Nc2ccccc2[N+](=O)[O-])nc1C", "30.7 µM (inactive)"]
]}

Reported GI50 (BT-549) for entry COc1ccc(-c2c(C#N)c(S)n(NS(=O)(=O)c3ccc(C)cc3)c(=O)c2C#N)cc1 is 13.4 µM (inactive)

Form: item Cc1cc2nnn(C3CCCCO3)c2cc1C (stereo not given) ; test system BT-549; GI50: > 100 µM (inactive)
